Reference source for all entries: PubChem BioAssay AID1996

Readings of solubility kinetic for the listed molecules
Conditions: buffer; pH 7.4; 200.0 µM
Return type: number; implicit unit µg/mL.

Illustrative cases are given below, each with its answer.
COc1ccc(C(CNC(=O)Cc2c(F)cccc2Cl)N2CCCCC2)cc1 (stereo not given) = 59.1
CC(C)Cc1ccc(S(=O)(=O)Nc2cccnc2)cc1 = 14.3
Cc1ccnc(N2CCCC(C(=O)Nc3cccc(C)c3C)C2)n1 (stereo not given) = 0.6
O=[N+]([O-])c1cc(F)c(N2CCCCC2)cc1Br = 0.3
Cc1ccc(NS(=O)(=O)c2cccc(C(=O)Nc3cccnc3)c2)c(C)c1 = 6

Q: I have this molecule here, `CCc1sc(C(=O)Nc2ccccc2N2CCOCC2)cc1C` , and I need its recorded solubility kinetic.
A: 2.5

Q: So what does the record say about solubility kinetic for `Cc1csc2c(=O)sc(NC(=O)c3ccco3)nc12` ?
A: 4.5

Q: Which solubility kinetic reading was recorded for the molecule `c1ccc(CN2CCN(c3nc4ccccc4s3)CC2)cc1` ?
A: 1

* * *

Conditions: buffer; pH 7.4; 200.0 µM
Metric: solubility kinetic

Q: Dear colleague, I am looking for the recorded solubility kinetic of the following compound: CCOC(=O)C(Cc1ccc(Cl)cc1Cl)c1ccno1 (stereo unspecified)
A: 11.7 µg/mL

Q: Entry `O=C(Cc1ccccc1[N+](=O)[O-])NCCCc1ccccc1` : reported solubility kinetic = ?
A: 43.2 µg/mL

Q: Which value of solubility kinetic has been reported for `Nc1c(Cl)ncnc1NCc1ccccc1` in the records?
A: 32.6 µg/mL

Q: Give the measured solubility kinetic of `COC(=O)c1[nH]c2ccccc2c1Sc1ccccc1` .
A: 0.9 µg/mL

Q: What does the record list as solubility kinetic for `COc1cc(S(=O)(=O)N2CCN(C(=O)C3CC3)CC2)ccc1NC(C)=O` ?
A: > 57.2 µg/mL

Q: // lookup solubility kinetic for `CC(C)c1ccc(OCC(=O)Nc2ccncc2)cc1`
A: 38.8 µg/mL

* * *

Details: buffer; pH 7.4; 200.0 µM
If the reported solubility kinetic equals or exceeds 30 µg/mL, assign Yes. If not, assign No.

Q: Threshold query (solubility kinetic >= 30 µg/mL) on `O=C(Nc1cccnc1)c1cc(-c2ccc(Cl)cc2)on1`
A: No

Q: Reported solubility kinetic reaches at least 30 µg/mL for `Cc1cc(C=O)c(C)n1C(C)C` ?
A: No

Q: Test whether the molecule `CNC(=O)c1cc2c(cn1)[nH]c1ccccc12` records solubility kinetic of 30 µg/mL or higher.
A: No

Q: Is it the case that `COC(=O)C1CCN(C(=O)COC(=O)c2ccc(N3CCCC3=O)cc2)CC1` has solubility kinetic reaching or exceeding 30 µg/mL?
A: Yes

Q: Assess whether reported solubility kinetic for `O=C(O)CCC(=O)Nc1ccc(-c2nc3ccc(C(=O)c4ccccc4)cc3[nH]2)cc1` sits at 30 µg/mL or higher.
A: Yes

Q: Please indicate if the recorded solubility kinetic for `Cc1ccccc1OCCC(=O)N1CCN(S(=O)(=O)c2ccccc2F)CC1` meets or exceeds 30 µg/mL.
A: Yes

Q: Assess whether reported solubility kinetic for `Cc1cccc(NC(=O)CCCc2ccccc2)c1C` sits at 30 µg/mL or higher.
A: No

Q: Is solubility kinetic at least 30 µg/mL? Consider CC1CCC(NC(=O)CCN2C(=O)C3CC=CCC3C2=O)CC1 (configuration not stated)
A: Yes

Q: Tell me whether solubility kinetic is at least 30 µg/mL here: `CCc1cccc(NC(=O)c2cc(OC)c(OC)c(OC)c2)c1`
A: Yes

Q: Determine whether this molecule has solubility kinetic no lower than 30 µg/mL: `COc1ccc(S(=O)(=O)n2cccc2)cc1`
A: No

Q: Quick check: does `Cc1ccsc1CN(C)CC(=O)Nc1ccccc1C(=O)NC1CC1` have solubility kinetic greater than or equal to 30 µg/mL?
A: Yes

Q: State whether the measured solubility kinetic reaches 30 µg/mL, counting equality as reaching it, for Cc1[nH]c2ccccc2c1C(C[N+](=O)[O-])c1ccco1 (configuration not stated)
A: Yes
